Biological target: Alpha-1A adrenergic receptor (Homo sapiens); also: assay procedure not described here
Sequence (P35348 whole entry): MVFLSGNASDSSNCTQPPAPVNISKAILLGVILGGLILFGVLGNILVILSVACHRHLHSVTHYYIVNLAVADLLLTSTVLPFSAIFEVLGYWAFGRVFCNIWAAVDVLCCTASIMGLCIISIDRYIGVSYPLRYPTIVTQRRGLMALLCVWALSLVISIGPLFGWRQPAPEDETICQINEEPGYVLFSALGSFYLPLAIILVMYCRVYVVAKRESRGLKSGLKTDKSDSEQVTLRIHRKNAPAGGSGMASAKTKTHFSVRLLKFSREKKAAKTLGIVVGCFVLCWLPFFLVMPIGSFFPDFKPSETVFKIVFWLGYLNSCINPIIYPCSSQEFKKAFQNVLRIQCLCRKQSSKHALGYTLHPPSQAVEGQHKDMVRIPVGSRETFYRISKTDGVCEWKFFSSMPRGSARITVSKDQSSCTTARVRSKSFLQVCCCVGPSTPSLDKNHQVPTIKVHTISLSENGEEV
Type: functional, cell-based
assay-readout: AC50

{"columns": ["compound", "recorded-result"],
 "data": [
  ["NC(=O)c1ncn([C@@H]2O[C@H](CO)[C@@H](O)[C@H]2O)c1O", "> 30 µM"],
  ["Nc1ncnc2c1ncn2[C@@H]1O[C@H](COP(=O)(O)O)[C@@H](O)[C@H]1O [ADENOSINE PHOSPHATE]", "> 30 µM"],
  ["CCCS(=O)(=O)Nc1ccc(F)c(C(=O)c2c[nH]c3ncc(-c4ccc(Cl)cc4)cc23)c1F", "> 30 µM"],
  ["NS(=O)(=O)c1cc(Cl)c(Cl)c(S(N)(=O)=O)c1 [DICHLORPHENAMIDE]", "> 30 µM"],
  ["N/N=c1/cc2c(n[nH]1)CCN(C(=O)c1ccccc1)C2", "> 30 µM"],
  ["C[C@H]1O[C@H](O[C@H]2[C@H](O)[C@@H](O)[C@@H](O[C@H]3[C@H](O)[C@@H](O)C(O)O[C@@H]3CO)O[C@@H]2CO)[C@H](O)[C@@H](O)[C@@H]1N[C@H]1C=C(CO)[C@@H](O)[C@H](O)[C@H]1O (some centres undefined)", "> 30 µM"],
  ["CN(C/C=C/c1ccccc1)Cc1cccc2ccccc12", "> 30 µM"],
  ["CO/N=C(\\C(=O)N[C@@H]1C(=O)N2C(C(=O)OCOC(=O)C(C)(C)C)=C(C)CS[C@H]12)c1csc(N)n1", "> 30 µM"],
  ["CN(C)CCCN1c2ccccc2Sc2ccccc21", "0.141 µM"],
  ["COc1c(C)c2c(c(O)c1C/C=C(\\C)CCC(=O)OCCN1CCOCC1)C(=O)OC2 [MYCOPHENOLATE MOFETIL]", "> 30 µM"],
  ["C[N+](C)(C)CCOC(N)=O", "> 30 µM"],
  ["CN1CCCC(n2nc(Cc3ccc(Cl)cc3)c3ccccc3c2=O)CC1 (centres undefined)", "1.1 µM"],
  ["O=C1CCC(N2C(=O)c3ccccc3C2=O)C(=O)N1 (centres undefined) [THALIDOMIDE]", "> 30 µM"],
  ["CC[C@]1(O)C[C@@H]2CN(CCc3c([nH]c4ccccc34)[C@@](C(=O)OC)(c3cc4c(cc3OC)N(C)[C@H]3[C@@](O)(C(N)=O)[C@H](O)[C@]5(CC)C=CCN6CC[C@]43[C@@H]65)C2)C1", "> 30 µM"],
  ["Cc1cc(-c2ccccc2)nnc1NCCN1CCOCC1", "> 30 µM"],
  ["CCOC(=O)[C@H](CCc1ccccc1)N[C@H]1CCCN2CCC[C@@H](C(=O)O)N2C1=O", "> 30 µM"],
  ["CN(CCCN1c2ccccc2CCc2ccccc21)CC(=O)c1ccc(Cl)cc1", "4.4 µM"],
  ["CNC(=O)c1cc(Oc2ccc(NC(=O)Nc3ccc(Cl)c(C(F)(F)F)c3)cc2)ccn1", "15 µM"],
  ["NS(=O)(=O)c1cc2c(cc1Cl)NC(CC1CCCC1)NS2(=O)=O (centres undefined) [CYCLOPENTHIAZIDE]", "> 30 µM"],
  ["CN(CCOc1ccc(NS(C)(=O)=O)cc1)CCc1ccc(NS(C)(=O)=O)cc1 [DOFETILIDE]", "> 30 µM"],
  ["N[C@@H](C(=O)N[C@@H]1C(=O)N2C(C(=O)O)=C(Cl)CS[C@H]12)c1ccccc1 [CEFACLOR ANHYDROUS]", "> 30 µM"],
  ["CS(=O)(=O)c1ccc([C@@H](O)[C@@H](CO)NC(=O)C(Cl)Cl)cc1", "> 30 µM"],
  ["CCC[C@@H]1C[C@@H](C(=O)N[C@@H]([C@H]2O[C@H](SC)[C@H](O)[C@@H](O)[C@H]2O)[C@H](C)Cl)N(C)C1", "> 30 µM"],
  ["NC(=O)C[S+]([O-])C(c1ccccc1)c1ccccc1 (centres undefined)", "> 30 µM"],
  ["O=C(Cn1ccnc1[N+](=O)[O-])NCc1ccccc1", "> 30 µM"],
  ["CCN(CC)CCOC(=O)c1ccc(N)cc1", "> 30 µM"],
  ["CCCCOc1cc(C(=O)NCCN(CC)CC)c2ccccc2n1", "> 30 µM"],
  ["Cc1nc2ccc(CN(C)c3ccc(C(=O)N[C@@H](CCC(=O)O)C(=O)O)s3)cc2c(=O)[nH]1", "> 30 µM"],
  ["NC(=O)c1cnccn1 [PYRAZINAMIDE]", "28 µM"],
  ["CC(C)(Oc1ccc(C2CC2(Cl)Cl)cc1)C(=O)O (centres undefined) [CIPROFIBRATE]", "> 30 µM"],
  ["CCCOc1ccc(C(=O)OCCN(CC)CC)cc1N", "> 30 µM"],
  ["NC(N)=Nc1nc(CSCCC(N)=NS(N)(=O)=O)cs1", "> 30 µM"],
  ["CC(N)Cc1ccccc1 (centres undefined)", "> 30 µM"],
  ["CCC1(C2=CCCCCC2)C(=O)NC(=O)NC1=O", "> 30 µM"]
]}

Origin of the recorded values: ChEMBL document CHEMBL5291721
